Measured values drawn from ChEMBL document CHEMBL1759866 for this set.

experiment: Cmax in CD1 mouse Calu6 tumor xenograft model at 30 mg/kg, po administered twice daily as suspension in 1% Tween 80 and 1% HPMC in water; assay type: ADME, organism-based; set-up: dose 30 mg/kg, route oral; details: in vivo

{"smiles_repr": "COc1cc(Nc2nccc(Nc3cnc4ccccc4c3)n2)cc(OC)c1OC", "Cmax [µM]": 5.34}

----------
assay: AUC in tumor of CD1 mouse Calu6 tumor xenograft model at 30 mg/kg, po administered twice daily as suspension in 1% Tween 80 and 1% HPMC in water; format: ADME, organism-based, Neoplasm; parameters: dose 30 mg/kg, route oral

{"smiles_repr": "COc1cc(Nc2nccc(Nc3cnc4ccccc4c3)n2)cc(OC)c1OC", "AUC, ng·h/mL": 989}

----------
assay: Cmax in CD1 mouse Calu6 tumor xenograft model at 100 mg/kg, po administered twice daily as suspension in 1% Tween 80 and 1% HPMC in water; format: ADME, organism-based; set-up: dose 100 mg/kg, route oral; settings: in vivo
measure_name: Cmax

{"smiles_repr": "COc1cc(Nc2nccc(Nc3cnc4ccccc4c3)n2)cc(OC)c1OC", "result": "13.4 µM"}

----------
assay: in vivo; conditions: CD1, mouse, tumor and plasma, po, 30 mg/kg, pH 3.5

{"smiles_repr": "c1ccc2ncc(Nc3ccnc(Nc4ccc(OCCCN5CCCCC5)cc4)n3)cc2c1", "Kp": 11.6}

----------
assay: Oral bioavailability in CD1 mouse Calu6 tumor xenograft model at 5 mg/kg administered as suspension in 20% captisol in PBS; type: ADME, organism-based; settings: in vivo
measure_name: bioavailability (%)

{"smiles_repr": "COc1cc(Nc2nccc(Nc3ccc4ncccc4c3)n2)cc(OC)c1OC", "numeric_value": 56}
{"smiles_repr": "COc1cc(Nc2nccc(Nc3cnc4ccccc4c3)n2)cc(OC)c1OC", "numeric_value": 63}

----------
assay: Cmax in tumor of CD1 mouse Calu6 tumor xenograft model at 30 mg/kg, po administered twice daily as suspension in 20% captisol in PBS of pH 3.5; format: ADME, organism-based, Neoplasm; design: dose 30 mg/kg, route oral
measure_name: Cmax (nM)

{"smiles_repr": "c1ccc2ncc(Nc3ccnc(Nc4ccc(OCCCN5CCCCC5)cc4)n3)cc2c1", "u": "nM", "numeric_value": 1360}

----------
assay: in vivo; settings: CD1, mouse, tumor and plasma, po, 30 mg/kg

{"smiles_repr": "COc1cc(Nc2nccc(Nc3cnc4ccccc4c3)n2)cc(OC)c1OC", "Kp": 0.129}

----------
experiment: Volume of distribution at steady state in CD1 mouse Calu6 tumor xenograft model at 1 mg/kg, iv administered as solution in DMSO and 5 mg/kg, po administered as suspension in 20% captisol in PBS; assay type: ADME, organism-based; settings: in vivo, read-out: Vdss
Reported Vd values for the following compounds.

{"smiles_repr": "COc1cc(Nc2nccc(Nc3cnc4ccccc4c3)n2)cc(OC)c1OC", "u": "L/kg", "Vd": 0.3}
{"smiles_repr": "COc1cc(Nc2nccc(Nc3ccc4ncccc4c3)n2)cc(OC)c1OC", "u": "L/kg", "Vd": 1.8}

----------
Reported clearance values for the following compounds.
assay: Clearance in Sprague-Dawley rat at 1 mg/kg, iv administered as solution in DSMO and 5 mg/kg, po administered as suspension in 1% Tween 80 and 1% HPMC in water after 12 to 24 hrs by LC-MS analysis; type: ADME, organism-based; details: in vivo

{"smiles_repr": "COc1cc(Nc2nccc(Nc3ccc4ncccc4c3)n2)cc(OC)c1OC", "u": "mL/min/kg", "clearance": 20}
{"smiles_repr": "COc1cc(Nc2nccc(Nc3cnc4ccccc4c3)n2)cc(OC)c1OC", "u": "mL/min/kg", "clearance": 6.67}

----------
experiment: Half life in Sprague-Dawley rat at 1 mg/kg, iv administered as solution in DSMO and 5 mg/kg, po administered as suspension in 1% Tween 80 and 1% HPMC in water after 12 to 24 hrs by LC-MS analysis; format: ADME, organism-based; conditions: in vivo
Reported half-life values for the following molecules.

{"smiles_repr": "COc1cc(Nc2nccc(Nc3cnc4ccccc4c3)n2)cc(OC)c1OC", "half-life (h)": 1.7}
{"smiles_repr": "COc1cc(Nc2nccc(Nc3ccc4ncccc4c3)n2)cc(OC)c1OC", "half-life (h)": 1.3}

----------
assay: Half life in Sprague-Dawley rat at 2 mg/kg, iv administered as solution in DSMO and 5 mg/kg, po administered as suspension in 1% Tween 80 and 1% HPMC in water after 12 to 24 hrs by LC-MS analysis; format: ADME, organism-based; details: in vivo

{"smiles_repr": "c1ccc2ncc(Nc3ccnc(Nc4ccc(OCCCN5CCCCC5)cc4)n3)cc2c1", "u": "h", "half-life": 12.1}

----------
test: Volume of distribution at steady state in Sprague-Dawley rat at 1 mg/kg, iv administered as solution in DSMO and 5 mg/kg, po administered as suspension in 1% Tween 80 and 1% HPMC in water after 12 to 24 hrs by LC-MS analysis; assay type: ADME, organism-based; details: in vivo, read-out: Vdss
Reported Vd values for the following compounds.

{"smiles_repr": "COc1cc(Nc2nccc(Nc3ccc4ncccc4c3)n2)cc(OC)c1OC", "Vd": "1.1 L/kg"}
{"smiles_repr": "COc1cc(Nc2nccc(Nc3cnc4ccccc4c3)n2)cc(OC)c1OC", "Vd": "0.2 L/kg"}

----------
assay: Cmax in tumor of CD1 mouse Calu6 tumor xenograft model at 30 mg/kg, po administered twice daily as suspension in 1% Tween 80 and 1% HPMC in water; format: ADME, organism-based, Neoplasm; parameters: dose 30 mg/kg, route oral

{"smiles_repr": "COc1cc(Nc2nccc(Nc3cnc4ccccc4c3)n2)cc(OC)c1OC", "Cmax / nM": 525}

----------
experiment: Cmax in CD1 mouse Calu6 tumor xenograft model at 100 mg/kg, po administered twice daily as suspension in 20% captisol in PBS of pH 3.5; format: ADME, organism-based; design: dose 100 mg/kg, route oral; conditions: in vivo

{"smiles_repr": "c1ccc2ncc(Nc3ccnc(Nc4ccc(OCCCN5CCCCC5)cc4)n3)cc2c1", "Cmax [nM]": 2220}

----------
test: in vivo; details: CD1, mouse, tumor and plasma, po, 100 mg/kg, pH 3.5
measure_name: Kp

{"smiles_repr": "c1ccc2ncc(Nc3ccnc(Nc4ccc(OCCCN5CCCCC5)cc4)n3)cc2c1", "measure_name": "Kp", "numeric_value": 81.9}

----------
assay: Clearance in Sprague-Dawley rat at 2 mg/kg, iv administered as solution in DSMO and 5 mg/kg, po administered as suspension in 1% Tween 80 and 1% HPMC in water after 12 to 24 hrs by LC-MS analysis; assay type: ADME, organism-based; details: in vivo

{"smiles_repr": "c1ccc2ncc(Nc3ccnc(Nc4ccc(OCCCN5CCCCC5)cc4)n3)cc2c1", "clearance": "10 mL/min/kg"}

----------
assay: Cmax in tumor of CD1 mouse Calu6 tumor xenograft model at 100 mg/kg, po administered twice daily as suspension in 1% Tween 80 and 1% HPMC in water; format: ADME, organism-based, Neoplasm; parameters: dose 100 mg/kg, route oral

{"smiles_repr": "COc1cc(Nc2nccc(Nc3cnc4ccccc4c3)n2)cc(OC)c1OC", "u": "nM", "Cmax": 2720}

----------
test: Cmax in CD1 mouse Calu6 tumor xenograft model at 30 mg/kg, po administered twice daily as suspension in 20% captisol in PBS of pH 3.5; type: ADME, organism-based; parameters: dose 30 mg/kg, route oral; conditions: in vivo

{"smiles_repr": "c1ccc2ncc(Nc3ccnc(Nc4ccc(OCCCN5CCCCC5)cc4)n3)cc2c1", "Cmax / nM": 180}

----------
experiment: AUC in tumor of CD1 mouse Calu6 tumor xenograft model at 30 mg/kg, po administered twice daily as suspension in 20% captisol in PBS of pH 3.5; assay type: ADME, organism-based, Neoplasm; set-up: dose 30 mg/kg, route oral
measure_name: AUC (ng·h/mL)

{"smiles_repr": "c1ccc2ncc(Nc3ccnc(Nc4ccc(OCCCN5CCCCC5)cc4)n3)cc2c1", "measure_name": "AUC", "numeric_value": 13300}

----------
test: AUC in tumor of CD1 mouse Calu6 tumor xenograft model at 100 mg/kg, po administered twice daily as suspension in 20% captisol in PBS of pH 3.5; type: ADME, organism-based, Neoplasm; parameters: dose 100 mg/kg, route oral
measure_name: AUC (µg·h/mL)

{"smiles_repr": "c1ccc2ncc(Nc3ccnc(Nc4ccc(OCCCN5CCCCC5)cc4)n3)cc2c1", "numeric_value": 1120}

----------
experiment: Cmax in tumor of CD1 mouse Calu6 tumor xenograft model at 100 mg/kg, po administered twice daily as suspension in 20% captisol in PBS of pH 3.5; assay type: ADME, organism-based, Neoplasm; parameters: dose 100 mg/kg, route oral
measure_name: Cmax

{"smiles_repr": "c1ccc2ncc(Nc3ccnc(Nc4ccc(OCCCN5CCCCC5)cc4)n3)cc2c1", "result": "143 µM"}
